target.entity: T1, CD25 endogenously expressed on SUDHL-1 human lymphoma cell line and induced human Treg (iTreg) (human, UniProt P01589 22-272)
T1 sequence (looked up): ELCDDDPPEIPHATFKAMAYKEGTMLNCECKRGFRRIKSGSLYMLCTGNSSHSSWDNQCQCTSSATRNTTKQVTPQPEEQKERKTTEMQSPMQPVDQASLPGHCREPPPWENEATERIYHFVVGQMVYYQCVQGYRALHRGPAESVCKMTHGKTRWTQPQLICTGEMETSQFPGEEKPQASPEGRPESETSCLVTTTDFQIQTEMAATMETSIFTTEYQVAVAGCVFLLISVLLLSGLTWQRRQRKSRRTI
assay.method.text: cell-based or functional assay
quantity.name: EC50, SUDHL-1/NFAT CD16 ADCC reporter assay (ng/mL)
Express the result in ng/mL but write the number alone.

Asked: For IBIO-101-CHO-WT (SD-889825-CW-A; IBIO-101, wild-type CHO cells) (antibody, human IgG1, kappa, V domains shown, The signal peptide is marked only by bold print (lost here); also called RTX-003; hD11) VH: QVQLVQSGAEVKKPGASLKISCKGSGYTFTDYAMHWVRQAPGQGLEWIGVISTYSGDAIYAQKFQGRATMTVDTSTSTAYLELSSLRSEDTAVYYCARGVTFDYWGQGTTVTVSS VL: DIQMTQSPSSLSASVGDRVTITCRASQDISNYLEWYQQKPGKAPKLLVYNAKTLAEGVPSRFSGSGSGTDFTLTISSLQPEDFGTYYCQHHYDTPYTFGQGTKLEIKR , what is its reported EC50, SUDHL-1/NFAT CD16 ADCC reporter assay?
Given back: 84.5

Hello, the source for this data is patent US20250034267A1, in case you need it.
